Biological target: human UGT1A1 (Homo sapiens, UniProt P22309)
Sequence (P22309 26-533): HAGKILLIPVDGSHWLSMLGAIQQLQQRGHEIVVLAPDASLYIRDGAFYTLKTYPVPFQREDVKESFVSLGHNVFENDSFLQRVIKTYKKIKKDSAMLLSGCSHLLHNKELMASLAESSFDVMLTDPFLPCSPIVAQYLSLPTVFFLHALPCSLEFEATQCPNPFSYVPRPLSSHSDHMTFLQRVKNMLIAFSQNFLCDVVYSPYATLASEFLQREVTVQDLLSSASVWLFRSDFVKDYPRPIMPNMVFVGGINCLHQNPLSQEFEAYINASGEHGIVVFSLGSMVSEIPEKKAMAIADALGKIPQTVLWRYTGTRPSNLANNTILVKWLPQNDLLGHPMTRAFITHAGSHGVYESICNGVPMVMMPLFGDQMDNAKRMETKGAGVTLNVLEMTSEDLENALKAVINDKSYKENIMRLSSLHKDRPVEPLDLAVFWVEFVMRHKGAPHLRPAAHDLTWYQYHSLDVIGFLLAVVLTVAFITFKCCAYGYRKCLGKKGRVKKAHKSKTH
Test: Mutual glucuronidation inhibition
Assay type: biochemical
Conditions: best fit by R2 and AIC, Lineweaver-Burk plots
OUTCOME_MEASURE: type of inhibition of UGT1A1-mediated glucuronidation

COMPOUND | REPORTED_VALUE
O=c1cc(-c2ccc(O)cc2)oc2ccccc12 [4′HF, 4′-hydroxyflavone] | mixed-type inhibitors
O=c1cc(-c2ccccc2)oc2cc(O)ccc12 [7HF, 7-hydroxyflavone] | mixed-type inhibitors
O=c1c(O)c(-c2ccccc2)oc2ccccc12 [3HF, 3-Hydroxyflavone] | mixed-type inhibitors
